# System: HT29 colon
# Assay summary: NCI-60 one-dose screen, 48 h (100 = growth as untreated, 0 = no growth, -100 = all killed)
# Condition parameters: 10 µM unless noted
About 83,000 compounds went through this panel and 20% of them were active in at least one assay; those are over-represented in the sample as a whole.
growth strictly less than 90% = satisfied. Otherwise not satisfied.

compound="COc1ccc(N2C(=O)CC(c3cc(OC)c(OC)c(OC)c3)C3C2=NC(=O)N3C)cc1 (centres undefined)" discrete_label="not satisfied"
compound="CCN1C(=O)N(CC)C2Nn3c(s/c(=C4\\C(=O)N(C(C)C)c5ccccc54)c3=O)=NC21 (centres undefined)" discrete_label=satisfied
compound="O=c1[nH]nnc2c1ncn2C1OC(CO)C(O)C1O (centres undefined)" discrete_label=satisfied
compound=NNC(=O)CNC(=O)Nc1n[nH]c(=S)s1 discrete_label="not satisfied"
compound=O=C1c2ccc3c4c(ccc(c24)C(=O)N1CCCCO)C(=O)N(CCCCO)C3=O discrete_label=satisfied
compound=O=c1oc2ccc(Cl)cc2c(=O)n1-c1ccc(F)cc1F discrete_label=satisfied
compound="O=C(NC1CCCCC1)C(c1cccs1)N(CCc1ccccc1)C(=O)c1ccco1 (centres undefined)" discrete_label=satisfied
compound="Clc1ccc(-c2nnc(COc3ccc(C4=NNC(c5ccco5)C4)cc3)o2)cc1 (centres undefined)" discrete_label="not satisfied"
compound="COC(=O)C1(C)CCC[C@]2(C)[C@H]3C[C@H]4C(C(C)C)=C[C@]3(CC[C@@H]12)[C@H]1[C@@H]4[C@@H](OCC#CCN2CCOCC2)CC[C@@H]1OCC#CCN1CCOCC1 (some centres undefined)" discrete_label=satisfied

====

# Tested on: IGROV1 ovarian
# Assay summary: NCI-60 one-dose screen, 48 h
# Condition parameters: 10 µM unless noted
About 83,000 compounds went through this panel and 20% of them were active in at least one assay; those are over-represented in the sample as a whole. Calls of active or inactive are those of the source. Rule for the calls: active = growth percent below 10; inactive = the rest.
Possible outcomes: active, inactive

compound="COc1cc(C2C3=C(COC3=O)N(CCO)c3cc4c(cc32)OCCO4)cc(OC)c1O (stereo not drawn)" discrete_label=inactive
compound=COc1ccc(S(=O)(=O)N(Cc2ccc3c(n2)C=CC(C)(C)O3)C2CCC2)cc1OC discrete_label=active
compound=c1ccc2cc3c(Nc4ccc(N5CCOCC5)cc4)ccnc3cc2c1 discrete_label=inactive
compound=COc1c(B(O)O)cccc1-c1nc2ccc3n[nH]c(F)c3c2c2c1CCCC2 discrete_label=inactive
compound=C#CCn1cc(C=C2C(=O)N(C)C(=O)N(C)C2=O)c2cc(Cl)ccc21 discrete_label=inactive
compound=O=c1oc2ccc(I)cc2c(=O)n1-c1ccc(I)cc1F discrete_label=inactive
compound=O=C(CSc1nc2ccccc2c(=O)n1-c1ccccc1)Nc1ccc(C(=O)/C=C/c2ccc(Cl)cc2)cc1 discrete_label=inactive
compound=CCOC(=O)c1sc(-c2ccc(OS(=O)(=O)c3ccc(Br)s3)c(C=O)c2)nc1C discrete_label=active

====

# System: NCI-H23 lung
# Assay summary: NCI-60 one-dose screen, 48 h (100 = growth as untreated, 0 = no growth, -100 = all killed)
# Condition parameters: 10 µM unless noted
# Protocol: Growth inhibition of the NCI-H23 human Non-Small Cell Lung tumor cell line is measured as a screen for anti-cancer activity. Cells are grown in 96 well plates and exposed to the test compound for 48 hours. Compounds are tested at a single concentration, which is 10^-5 M for most compounds. The reported endpoint is percent growth (GI% or GIPRCNT), where numbers from 0 - 100% represent growth inhibition, and numbers from -100% - 0 represent cell death. […]
Compounds without any hit were thinned out: in the full panel of roughly 83,000, 20% have a hit.
Catalogue of growth values
Measured quantity: growth (%)

compound=C[C@@H](C(=O)NCCCC#Cc1cnc(Nc2ccc(C#N)cc2)nc1NC1CC1)N(C)C(=O)/C=C/CN(C)C measured_quantity=growth test_result=22.8
compound=COc1ccc(/C=C/C(=O)c2c(C)nc3ccccc3c2/C=C/c2ccccc2)c(OC)c1 measured_quantity=growth test_result=73.4
compound="CCCC(c1nnnn1C1CCCCC1)N1CCN(C(=O)c2ccco2)CC1 (stereo not drawn)" measured_quantity=growth test_result=71

====

# Test system: SK-MEL-5 melanoma
# Assay summary: NCI-60 one-dose screen, 48 h
# Condition parameters: 10 µM unless noted
The panel holds about 83,000 compounds, 20% with a hit somewhere; the sample as a whole holds those more often. The source made the active and inactive calls. The calls were made as follows: active = growth percent below 10; inactive = the rest.
Possible outcomes: label 1 for active, label 0 for inactive

compound="COc1ccc(C2C3=C(COC3=O)N(CCO)c3cc4c(cc32)CCC4)cc1 (stereo not drawn)" discrete_label="label 0"
compound=COc1cc2cc3c(=O)n4c(cc5cc(OC)ncc54)c(=O)n3c2cn1 discrete_label="label 0"
compound=CC(=O)c1ccc(Nc2nc(NCCO)nc(Nc3ccc(Cl)cc3)n2)cc1 discrete_label="label 0"
compound=CCOC(=O)c1cc2c(n1Cc1ccccc1)-c1oncc1CCC2 discrete_label="label 0"
compound=COc1cc(-c2c3c(c(Br)n2Cc2ccccc2)-c2nc(N)sc2CC3)cc(OC)c1OC discrete_label="label 0"
compound=CCOc1ccc(-c2nonc2NC(=O)c2cccc(C)c2)cc1OCC discrete_label="label 0"
compound=CCCCCCc1cc2cc(-c3csc(/C=C/c4ccccc4)n3)c(=O)oc2cc1O discrete_label="label 1"
compound="CCCCC1COc2cccc3c2N1C=C/C3=C\\C(=O)N(C)c1ccccc1 (stereo not drawn)" discrete_label="label 0"
compound=COc1ccc2oc(=O)cc(Cn3cc(Cn4cnc5c4c(=O)n(C)c(=O)n5C)nn3)c2c1 discrete_label="label 0"
compound=O=C(NCCCN1CCC(N2CCCCC2)CC1)C1=Cc2cc(Br)ccc2OC1 discrete_label="label 0"
compound=Cc1sc2ncn(CC(=O)Nc3ccc(S(N)(=O)=O)cc3)c(=O)c2c1C discrete_label="label 0"
compound=O=C(CSc1nc2ccccc2c(=O)n1-c1ccccc1)Nc1ccc(C(=O)/C=C/c2ccc(Cl)cc2)cc1 discrete_label="label 0"
compound=CCOC(=O)c1cc2c(n1Cc1cccc(OC)c1)-c1oncc1CCC2 discrete_label="label 1"
compound=Nc1ccc(-c2nc3cc(Oc4ccc(Oc5ccc6[nH]c(-c7ccc(N)cc7)nc6c5)cc4)ccc3[nH]2)cc1 discrete_label="label 0"
compound=CN(C)c1ccc(/C=C/c2ccnc3c(O)cccc23)cc1 discrete_label="label 1"
compound=CCOC(=O)c1sc(-c2ccc(OS(=O)(=O)c3cccs3)c(C=O)c2)nc1C discrete_label="label 1"
compound=COc1ccc(Nc2cc(C)nc(NCc3ccccc3)n2)cc1 discrete_label="label 0"
compound=NS(=O)(=O)c1ccc(CCN=C=S)cc1 discrete_label="label 0"
compound=O=C1Nc2ccccc2/C1=C/c1cccs1 discrete_label="label 0"
compound=COc1cc2nc(NC3CCCC3)nc(NC3CCN(C(C)C)CC3)c2cc1OC discrete_label="label 0"
compound=Cc1ccc2nc(NC(=O)CSC(=S)N3CCN(c4ccccc4)CC3)sc2c1 discrete_label="label 0"
compound="COc1ccc(C2NCCc3c2[nH]c2ccccc32)cc1CN1CCN(c2ccc(F)cc2)CC1 (stereo not drawn)" discrete_label="label 1"
compound=CC/C(=C(\CC)c1ccc(OCC[N+](C)(C)C)cc1)c1ccc(OC)cc1 discrete_label="label 0"
compound=NCCOc1ncccc1/C=C1\c2ccccc2-c2ccc([N+](=O)[O-])cc21 discrete_label="label 1"
compound="O=NN(C(=O)NC1CCC(C(=O)O)CC1)C1CCC(C(=O)O)CC1 (stereo not drawn)" discrete_label="label 0"
compound=CCN(CC)c1cc(C)c2cc(NC(=O)c3cccc(OC)c3)ccc2n1 discrete_label="label 0"
compound=COc1ccc(C(=O)Nc2ccc3nc(N4CCCCC4)cc(C)c3c2)cc1OC discrete_label="label 0"
compound=Nc1nc2c(ncn2[C@@H]2O[C@H](CS)[C@@H](O)[C@H]2O)c(=O)[nH]1 discrete_label="label 0"
compound=Clc1ncccc1Nc1ccc2nnc(-c3ccncc3)n2n1 discrete_label="label 0"
compound=O=S1(=O)CCN(Cc2ccccc2)CC1 discrete_label="label 0"
compound=Nc1ccc(-n2c(=O)oc3ccc(Cl)cc3c2=O)c(Cl)c1 discrete_label="label 1"
compound=COc1c2ccoc2c(/C=C/C=O)c2oc(-c3ccccc3)cc(=O)c12 discrete_label="label 0"
compound="COc1ccc(CCN2C(=O)/C(=C/c3ccc(C4Oc5ccccc5C5CC(c6cccc(OC)c6)=NN54)cc3)SC2=S)cc1 (stereo not drawn)" discrete_label="label 0"
compound=CC(C)C[C@H](C(=O)N[C@H](C(N)=O)C(C)C)N1CC=CCN(OCc2ccccc2)S1(=O)=O discrete_label="label 0"
compound=C#CCn1cc(C=C2C(=O)N(C)C(=O)N(C)C2=O)c2cc(Cl)ccc21 discrete_label="label 0"
compound=COC(=O)c1c2c(c(C)[n+]([O-])c1C)C(=O)C=C(NCc1ccc(F)c(F)c1)C2=O discrete_label="label 1"
compound=COc1ccc2occ(C3=C(c4c[nH]c5ccccc45)C(=O)NC3=O)c2c1 discrete_label="label 0"
compound=Nc1nc(Nc2cccc(F)c2)nc2ccccc12 discrete_label="label 0"
